test system: femoral artery; assay: Vasodilator activity, femoral artery (technique of perfused paw); format: in vivo; set-up: key: O: no action; +: slight activity; ++: effect equal to half the effect of papaverine; +++: effect equal to that of papaverine; ++++: effect higher than that of papaverine; details: intra-arterial, 30 mg/kg, anaesthetized dog, vs papaverine at same dose
METRIC: VASODILATOR ACTIVITY

COMPOUND | METRIC | EXPERIMENTAL RESULT
CC1Cc2cc(C(O)C(C)NCCCOc3ccccc3)ccc2S1 (stereo not shown) | VASODILATOR ACTIVITY | +++
CCCCCCCCNC(C)C(O)c1ccc2c(c1)CCCS2 (stereo not shown) | VASODILATOR ACTIVITY | ++++
CCCCSCCCNC(C)C(O)c1ccc2c(c1)CCS2 (stereo not shown) | VASODILATOR ACTIVITY | ++
CC(NCCOc1ccc(C#N)cc1)C(O)c1ccc2c(c1)CCS2 (stereo not shown) | VASODILATOR ACTIVITY | +++

----------
test system: guinea-pig ileum (barium chloride contractions); assay: Antispasmodic activity in vitro, contractions caused by barium chloride; conditions: added 15 minutes before spasm-producing agent
Consider the following molecules; for each one, report its ANTISPASMODIC ACTIVITY BaCl2 (dose causing complete spasm inhibition).

Known ANTISPASMODIC ACTIVITY BaCl2 (dose causing complete spasm inhibition) results, listed for orientation:
MOLECULE | ASSAY SYSTEM | EXPERIMENTAL RESULT
Cc1ccccc1N1CCN(C(C)C(O)c2ccc3c(c2)CCC(C)S3)CC1 (centres unmarked) [No 10] | guinea-pig ileum (barium chloride contractions) | 8.3 μg per ml
CCCCCCCCNC(C)C(O)c1ccc2c(c1)CCS2 (centres unmarked) [No 3] | guinea-pig ileum (barium chloride contractions) | 8.3 μg per ml
COc1ccc(CCNC(C)C(O)c2ccc3c(c2)CCCS3)cc1OC (centres unmarked) [No 22] | guinea-pig ileum (barium chloride contractions) | 8.3 μg per ml

Give ANTISPASMODIC ACTIVITY BaCl2 (dose causing complete spasm inhibition) for each of the items listed below.
1. Cc1ccccc1N1CCN(C(C)C(O)c2ccc3c(c2)CCCS3)CC1 (centres unmarked) [No 15]
2. CC(NCCCc1ccccc1)C(O)c1ccc2c(c1)CCCS2 (centres unmarked) [No 17]
3. CCCCCCCCNC(C)C(O)c1ccc2c(c1)CCCCS2 (centres unmarked) [No 11]
4. CCCCCCCCNC(C)C(O)c1ccc2c(c1)CCC(C)S2 (centres unmarked) [No 4]
5. CC(NCCOc1ccccc1)C(O)c1ccc2c(c1)CCCS2 (centres unmarked) [No 20]
6. CC(NCCC(c1ccccc1)c1ccccc1)C(O)c1ccc2c(c1)CCCS2 (centres unmarked) [No 16]
7. CC(NCCc1ccccc1)C(O)c1ccc2c(c1)CCCCS2 (centres unmarked) [No 14]
8. CC1CCc2cc(C(O)C(C)NCCc3ccccc3)ccc2S1 (centres unmarked) [No 9]

OUT:
1. > 16.7 μg per ml
2. 1.7 μg per ml
3. 3.3 μg per ml
4. > 16.7 μg per ml
5. 8.3 μg per ml
6. 0.33 μg per ml
7. 1.7 μg per ml
8. 0.8 μg per ml
